assay: Cytotoxicity assay; conditions: human, MMTV-βLa HeLa cells, EC50 (95% confidence interval), Cytotoxicity assay (ATP content), HP D300 - without DMSO backfill, 384-well
Endpoint Label: EC50 at 72 hr (µM)

> print(dat)
                                   compound  test.value
1  CC/C(=C(\c1ccccc1)c1ccc(OCCN(C)C)cc1)c1ccccc1 [Tamoxifen, tamoxifen]           9
2  COc1cccc2c1C(=O)c1c(O)c3c(c(O)c1C2=O)C[C@@](O)(C(C)=O)C[C@@H]3O[C@H]1C[C@H](N)[C@H](O)[C@H](C)O1 [Daunorubicin]       0.252

---

experiment: Cytotoxicity assay; details: human, MMTV-βLa HeLa cells, EC50 (95% confidence interval), Cytotoxicity assay (ATP content), HP D300 - with DMSO backfill, 384-well
Measured EC50 at 72 hr of individual entries
Endpoint Label: EC50 at 72 hr

> print(dat)
                               smiles.input  endpoint.label  test.value
1  COc1cccc2c1C(=O)c1c(O)c3c(c(O)c1C2=O)C[C@@](O)(C(C)=O)C[C@@H]3O[C@H]1C[C@H](N)[C@H](O)[C@H](C)O1   EC50 at 72 hr    0.189 µM
2  CC/C(=C(\c1ccccc1)c1ccc(OCCN(C)C)cc1)c1ccccc1   EC50 at 72 hr     8.77 µM

---

experiment: Cytotoxicity assay; conditions: human, MMTV-βLa HeLa cells, EC50 (95% confidence interval), Cytotoxicity assay (ATP content), Pin tool – 1536-well
Measured EC50 at 72 hr of individual entries
Endpoint Label: EC50 at 72 hr

> print(dat)
                               smiles.input  test.value
1  COc1cccc2c1C(=O)c1c(O)c3c(c(O)c1C2=O)C[C@@](O)(C(C)=O)C[C@@H]3O[C@H]1C[C@H](N)[C@H](O)[C@H](C)O1     0.38 µM
2  CC/C(=C(\c1ccccc1)c1ccc(OCCN(C)C)cc1)c1ccccc1     32.1 µM
